Assayed system: PDGF-AB (Homo sapiens, UniProt P04085;P01127 P04085:87-211,P01127:82-190)
Sequence (P01127 82-190, chain 2 of 2, other chains not shown): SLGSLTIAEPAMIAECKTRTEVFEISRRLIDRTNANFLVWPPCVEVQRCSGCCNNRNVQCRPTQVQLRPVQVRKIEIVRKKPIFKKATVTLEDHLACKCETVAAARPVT
Protocol text: filter; thrombin aptamer control
Experimental setup: tags: R&D Systems, E. coli; predicted stem-loop
Assay endpoint: Kd (nM)
Answers are plain numbers, in nM.

Answer with the recorded Kd of CAGTCCGTGGTAGGGCAGGTTGGGGTGACTTCGTGGAA (ssDNA, 3'-3' inverted T) [T39] only. 230
